compounds and their reported GI50
# Tested on: PC-6
# experiment summary: Compound was tested for growth inhibitory activity after 72 hr of continuous exposure against vincristine resistant cancer cell line PC-6/VCR
# Assay type: functional
# condition set: Homo sapiens, PC-6, 72 h
measured property: GI50 (µg/mL)

* CC(=O)O[C@H]1C(=O)[C@@]2(C)[C@H]([C@H](OC(=O)c3ccccc3)[C@]3(O)C[C@H](OC(=O)[C@H](O)[C@@H](NC(=O)OC(C)(C)C)c4ccccc4)C(CN=[N+]=[N-])=C1C3(C)C)[C@]1(OC(C)=O)CO[C@@H]1C[C@@H]2O | 0.39
* CCC1=C2[C@@H](OC(C)=O)C(=O)[C@@]3(C)[C@H]([C@H](OC(=O)c4ccccc4)[C@](O)(C[C@@H]1OC(=O)[C@H](O)[C@@H](NC(=O)OC(C)(C)C)c1ccccc1)C2(C)C)[C@]1(OC(C)=O)CO[C@@H]1C[C@@H]3O | 0.167
* CC(=O)O[C@@]12CO[C@@H]1C[C@H](O)[C@@]1(C)C(=O)[C@H](O)C3=C(CC#N)[C@@H](OC(=O)[C@H](O)[C@@H](NC(=O)OC(C)(C)C)c4ccccc4)C[C@@](O)([C@@H](OC(=O)c4ccccc4)[C@H]21)C3(C)C | 0.754
* CC(=O)O[C@@]12CO[C@@H]1C[C@H](O)[C@@]1(C)C(=O)[C@H](O)C3=C(C)[C@@H](OC(=O)[C@H](O)[C@@H](NC(=O)OC(C)(C)C)c4ccccc4)C[C@@](O)([C@@H](OC(=O)c4ccccc4)[C@H]21)C3(C)C.O.O.O | 0.173

---

# Test system: PC-6
# experiment summary: Compound was tested for growth inhibitory activity after 72 hr of continuous exposure against human lung cancer cell line PC-6
# Type: functional
# condition set: PC-6, 72 h
In plain terms, low GI50, meaning strictly below 0.1 µg/mL, gives 1, and everything else gives -1.

• CC(=O)NCC1=C2[C@@H](OC(C)=O)C(=O)[C@@]3(C)[C@H]([C@H](OC(=O)c4ccccc4)[C@](O)(C[C@@H]1OC(=O)[C@H](O)[C@@H](NC(=O)OC(C)(C)C)c1ccccc1)C2(C)C)[C@]1(OC(C)=O)CO[C@@H]1C[C@@H]3O = -1
• CC(=O)O[C@H]1C(=O)[C@@]2(C)[C@H]([C@H](OC(=O)c3ccccc3)[C@]3(O)C[C@H](OC(=O)[C@H](O)[C@@H](NC(=O)OC(C)(C)C)c4ccccc4)C(CN=[N+]=[N-])=C1C3(C)C)[C@]1(OC(C)=O)CO[C@@H]1C[C@@H]2O = 1
• CC(=O)O[C@H]1C(=O)[C@@]2(C)[C@H]([C@H](OC(=O)c3ccccc3)[C@]3(O)C[C@H](OC(=O)[C@H](O)[C@@H](NC(=O)OC(C)(C)C)c4ccccc4)C(C=O)=C1C3(C)C)[C@]1(OC(C)=O)CO[C@@H]1C[C@@H]2O = -1
• CC(=O)OCC1=C2[C@@H](O)C(=O)[C@@]3(C)[C@H]([C@H](OC(=O)c4ccccc4)[C@](O)(C[C@@H]1OC(=O)[C@H](O)[C@@H](NC(=O)OC(C)(C)C)c1ccccc1)C2(C)C)[C@]1(OC(C)=O)CO[C@@H]1C[C@@H]3O = -1
• CC(=O)O[C@@]12CO[C@@H]1C[C@H](O)[C@@]1(C)C(=O)[C@H](O)C3=C(CC#N)[C@@H](OC(=O)[C@H](O)[C@@H](NC(=O)OC(C)(C)C)c4ccccc4)C[C@@](O)([C@@H](OC(=O)c4ccccc4)[C@H]21)C3(C)C = 1
• CC(=O)O[C@@]12CO[C@@H]1C[C@H](O)[C@@]1(C)C(=O)[C@H](O)C3=C(C)[C@@H](OC(=O)[C@H](O)[C@@H](NC(=O)OC(C)(C)C)c4ccccc4)C[C@@](O)([C@@H](OC(=O)c4ccccc4)[C@H]21)C3(C)C.O.O.O [DOCETAXEL] = 1
• CC(=O)O[C@@]12CO[C@@H]1C[C@H](O)[C@@]1(C)C(=O)[C@H](O)C3=C(CN4CCOCC4)[C@@H](OC(=O)[C@H](O)[C@@H](NC(=O)OC(C)(C)C)c4ccccc4)C[C@@](O)([C@@H](OC(=O)c4ccccc4)[C@H]21)C3(C)C = -1
• CCC1=C2[C@@H](OC(C)=O)C(=O)[C@@]3(C)[C@H]([C@H](OC(=O)c4ccccc4)[C@](O)(C[C@@H]1OC(=O)[C@H](O)[C@@H](NC(=O)OC(C)(C)C)c1ccccc1)C2(C)C)[C@]1(OC(C)=O)CO[C@@H]1C[C@@H]3O = 1

Value source: ChEMBL document CHEMBL1129804
